molecular target: 6xHis-T-SUMO-eGFP

protein | activity level (grade)
Arabidopsis thalania ULP1c (AtULP1c) SUMO protease catalytic domain (protein) MVVEEACELPEGLPEDIYYPSSDQSDGRDLVQVSLKDLKCLSPGEYLTSPVINFYIRYVQHHVFSADKTAANCHFFNTFFYKKLTEAVSYKGNDRDAYFVKFRRWWKGFDLFCKSYIFIPIHEDLHWSLVIICIPDKEDESGLTIIHLDSLGLHPRNLIFNNVKRFLREEWNYLNQDAPLDLPISAKVWRDLPNMINEAEVQVPQQKNDFDCGLFLLFFIRRFIEEAPQRLTLQDLKMIHKKWFKPEEASALRIKIWNILVDLFRKGNQTDLEHHHHHH | -
human SENP1 (hSENP1) SUMO protease catalytic domain (protein) MASFPEITEEMEKEIKNVFRNGNQDEVLSEAFRLTITRKDIQTLNHLNWLNDEIINFYMNMLMERSKEKGLPSVHAFNTFFFTKLKTAGYQAVKRWTKKVDVFSVDILLVPIHLGVHWCLAVVDFRKKNITYYDSMGGINNEACRILLQYLKQESIDKKRKEFDTNGWQLFSKKSQIPQQMNGSDCGMFACKYADCITKDRPINFTQQHMPYFRKRMVWEILHRKLLEHHHHHH | +/-
human SENP2 (hSENP2) SUMO protease catalytic domain (protein) MASLLELTEDMEKEISNALGHGPQDEILSSAFKLRITRGDIQTLKNYHWLNDEVINFYMNLLVERNKKQGYPALHVFSTFFYPKLKSGGYQAVKRWTKGVNLFEQEIILVPIHRKVHWSLVVIDLRKKCLKYLDSMGQKGHRICEILLQYLQDESKTKRNSDLNLLEWTHHSMKPHEIPQQLNGSDCGMFTCKYADYISRDKPITFTQHQMPLFRKKMVWEILHQQLLAAALEHHHHHH | +
Saccharomyces cerevisiae Ulp1 SUMO protease catalytic domain (protein) MGLVPELNEKDDDQVQKALASRENTQLMNRDNIEITVRDFKTLAPRRWLNDTIIEFFMKYIEKSTPNTVAFNSFFYTNLSERGYQGVRRWMKRKKTQIDKLDKIFTPINLNQSHWALGIIDLKKKTIGYVDSLSNGPNAMSFAILTDLQKYVMEESKHTIGEDFDLIHLDCPQQPNGYDCGIYVCMNTLYGSADAPLDFDYKDAIRMRRFIAHLILTDALKLEHHHHHH | ++
